molecular target: ULK3 (human); experiment: KINOMEscan competition binding; conditions: compound 10.0 µM
MEASURE NAME: kinase still bound, per cent of control (%)
Return type: number; implicit unit %.

Worked examples follow.
COMPOUND: CNC(=O)Nc1ccc(-c2nc(N3CC4CCC(C3)O4)c3cnn(C4CCC5(CC4)OCCO5)c3n2)cc1
MEASURE NAME: kinase still bound, per cent of control
UNITS OF MEASURE: %
OBSERVED RESULT: 92
//
COMPOUND: CC1=C(C(=O)Nc2cc3cn[nH]c3cc2F)C(c2ccc(C(F)(F)F)cc2)CC(=O)N1 (stereo not drawn)
MEASURE NAME: kinase still bound, per cent of control
UNITS OF MEASURE: %
OBSERVED RESULT: 99

Let's switch to this compound now.
kinase still bound, per cent of control reading for COc1cc(C)c(Sc2cnc(NC(=O)c3ccc(CNC(C)C(C)C)cc3)s2)cc1C(=O)N1CCN(C(C)=O)CC1 (stereo not drawn) : 100
